# Test method notes: activity coefficient (dimensionless); of the first substance listed, at infinite dilution; xn = mol fraction of the nth substance listed
# Test settings: 353.15 K; 101.33 kPa; Liquid; Chromatography; x1 = 0
Measured endpoint: activity coefficient

A selection of reference data follows.
CCCO [propan-1-ol] + CCCCCCCCn1cc[n+](C)c1C.F[B-](F)(F)F    1.97
CCCCCCCCC [nonane] + CCCCCCCCn1cc[n+](C)c1C.F[B-](F)(F)F    37.1
CCc1ccccc1 [ethylbenzene] + CCCCCCCCn1cc[n+](C)c1C.F[B-](F)(F)F    4.57

[P] C1COCCO1 [1,4-dioxane] + CCCCCCCCn1cc[n+](C)c1C.F[B-](F)(F)F
[Q] CC1CCCCC1 [methylcyclohexane] + CCCCCCCCn1cc[n+](C)c1C.F[B-](F)(F)F
Of P and Q , which one carries the higher reported activity coefficient? Select an item and report its label.
Q
(Q: 14.3, P: 1.86)

These data points were gathered from the NIST ThermoML archive (doi:10.1016/j.jct.2018.09.003).
